- TGT: BCL6::BCOR (Homo sapiens, UniProt P41182, C67R/C84N/C8Q)
- Construct: BCL6 (amino acids 5 to 129, with the following changes to the natural protein)
- ASSAY REMARKS: BCL6::BCOR ULight TR-FRET assay
Below, each of the molecules is paired with its reported IC50 value.
PROPERTY LABEL: IC50 (nM)

C#CCNC(=O)COc1cc2cc(Nc3nc(N4CCC(C(=O)N(C)C)CC4)ncc3Cl)ccc2n(C)c1=O    10
Cn1c(=O)c(OCC(=O)O)cc2cc(Nc3nc(N4CCCC(F)(F)CC4)ncc3Cl)ccc21    16
CNC(=O)COc1cc2cc(Nc3nc(N4C[C@@H](C)O[C@@H](C)C4)ncc3Cl)ccc2n(C)c1=O    6
CNC(=O)COc1cc2cc(Nc3nc(N4CCc5cnccc5C4)ncc3Cl)ccc2n(C)c1=O    5
CNC(=O)COc1cc2cc(Nc3nc(N4CCC(C(=O)N(C)C)CC4)ncc3Cl)c(OC)cc2n(C)c1=O    60
CNC(=O)COc1cc2cc(Nc3nc(N4CCC5CN(Cc6ccccc6)CC54)ncc3Cl)ccc2n(C)c1=O (stereo not shown)    10
C[C@@H]1C[C@H](C)CN(c2ncc(Cl)c(Nc3ccc4c(c3)cc(O[C@H](C)C(=O)O)c(=O)n4C)n2)C1 (relative stereo)    82

The reported measurements were obtained from patent US11001570B2.
